- Run description: Equilibrium solubility in aqueous media
- Assay type: physicochemical
- Run conditions: unbuffered water, 25 °C, water, thermodynamic from solid, Water (unbuffered), RT, 24 h
Quantity: solubility at 24 h (µg/mL)
Unit µg/mL implied. Number only.

Input: Output measured solubility at 24 h for this item: CC(C)N(C[C@H]1O[C@@H](n2cnc3c(N)ncnc32)[C@H](O)[C@@H]1O)[C@H]1C[C@@H](CCc2nc3cc(C(C)(C)C)ccc3[nH]2)C1 [Form B, trihydrate]
Output: 1.2

====

- Run description: Equilibrium solubility in organic solvents
- Type: physicochemical
- Run conditions: organic solvent or mixture, thermodynamic from solid; Acetonitrile, RT
Quantity: solubility at 24 h (µg/mL)
// note: answer is a bare numeric in µg/mL

Input: Using known records, supply solubility at 24 h for CC(C)N(C[C@H]1O[C@@H](n2cnc3c(N)ncnc32)[C@H](O)[C@@H]1O)[C@H]1C[C@@H](CCc2nc3cc(C(C)(C)C)ccc3[nH]2)C1 [Form B, trihydrate]
Output: 1500
